Here the recorded amyloid nucleation score is given for each entry.
# experiment notes: amyloid nucleation score (Sup35N fusion, yeast selection) (log enrichment); library NNK1; higher = more nucleation; inactive = no reads after selection;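 note: zero at mode of non-aggregating sequences after 7 days selection at 30°C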

sequence entry	amyloid nucleation score
RQVPGIKCKSFTLYFADITL	3.85
YQRSTWSSWNQVRYYHEFQR	1.59
YNAARLFPYVNVWGII	-0.305
LVLGSSLWAGCCDQPHGWQV	-0.211
KRCSFWQTRTVELSFGHPVL	-1.23
SIRWVIHDRVSRVYDVLRCG	0.944

---

# experiment notes: amyloid nucleation score (Sup35N fusion, yeast selection) (log enrichment); library NNK1; higher = more nucleation; inactive = no reads after selection
parameter: amyloid nucleation score

sequence entry	observed measurement
TVKCILYSRFHKGCGWRCER	3.15
FHTLDVCPGRVLNLYNVKVW	-0.427
DSCRWGFLRVRVLGFSSVWY	-0.28
SGGSEELLRVVMVSSMKGPW	-0.254
HVCEGEVVR	-0.135
WSWRLPGPCLFFCAEEQLTK	1.32
SYLGCVHWSRRTDLVTFFDF	0.495
YSLAMRLVPGPPQDENHTVN	-1.94
SYPESTTRNF	-0.209
SARYLMEFWKVHIKAYIMSF	0.099

---

# experiment notes: amyloid nucleation score (Sup35N fusion, yeast selection) (log enrichment); library NNK3; higher = more nucleation; inactive = no reads after selection

substance	amyloid nucleation score
SFYGSIQGQNLLTLLNMKTR	inactive
ERQFMFYKVTVVIPTSHLCS	inactive
ICDDMVGVC	inactive
WMFVRGDAGLRFVGG	1.05
VFFIAAFLSTCMR	inactive
YVCGQSG	inactive

---

# experiment notes: amyloid nucleation score (Sup35N fusion, yeast selection) (log enrichment); library NNK1; higher = more nucleation; inactive = no reads after selection
Mark satisfied for reported amyloid nucleation score of 0.4 or greater; mark not satisfied for anything smaller.

substance	category
CTRVTSRAM	not satisfied
KNPRGENIFLPCLRMGKHLL	not satisfied
MSHWTMGREWITHLFSGHWG	satisfied
TVRLKLINRYPDENRLYTDH	satisfied
GHNINFGVDCGTVGRFCNTW	not satisfied
EGRSWLGTESGLYGNVREND	satisfied

---

# experiment notes: amyloid nucleation score (Sup35N fusion, yeast selection) (log enrichment); library NNK3; higher = more nucleation; inactive = no reads after selection

substance	amyloid nucleation score
TCFESLGLDVPIPYNRWVRS	inactive
TVLLYLNDMVNNNFGFEGSF	0.647
WGNLCQSGALCCQEGC	inactive
GSGMGL	inactive
TRHLMLVLSWFLHRKNISRG	inactive
SLGKPSHREFYDFVVAAKTT	inactive
WCDYMKNPCSFEGKFLWRWP	inactive
MSLLASLLIMYIPIRYNVE	inactive
IFVNSTVLFLMHVCCLSVIS	2.12

---

# experiment notes: amyloid nucleation score (Sup35N fusion, yeast selection) (log enrichment); library NNK2; higher = more nucleation; inactive = no reads after selection
parameter: amyloid nucleation score

substance	parameter	observed measurement
YNFLWWSMKDT	amyloid nucleation score	inactive
RFCWICCHVQFFYELHITHA	amyloid nucleation score	inactive
KGSDSYLFIERWCLKMNISL	amyloid nucleation score	inactive
IYAQAFFVYHTLFWGGGDQW	amyloid nucleation score	0.495
LCVIIMFLIIYYNEEFVWSQ	amyloid nucleation score	inactive
RSYFSDFH	amyloid nucleation score	inactive
RGRCFWLEFTFISWLSNDVA	amyloid nucleation score	inactive
HLESAWSRVSTDRCTNTWTV	amyloid nucleation score	0.506
RIFLYND	amyloid nucleation score	inactive
